- Tested on: HepG2 cells
- procedure.details: MTT proliferation assay, HepG2
- Type: cell-based
- condition.context: Homo sapiens, HepG2, 48 h
- Description: […]
pIC50: −log10 of the molar value.
endpoint.name: pIC50

compound: COc1cc(NC(=O)Nc2ccc(OCc3ccc(OCCN4CCCCC4)cc3)c3ccccc23)ccc1F [IY210105C-1]
tgt: HepG2 cells
pIC50: 5.36

compound: O=C(NCc1ccc(F)c(Cl)c1)Nc1ccc(OCc2ccc(OCCN3CCCCC3)cc2)c2ccccc12 [ID210115B-1]
tgt: HepG2 cells
pIC50: 5.33

compound: O=C(Nc1ccc(Cl)c(F)c1)Nc1ccc(OCc2ccc(OCCN3CCCCC3)cc2)c2ccccc12 [IY1229C-1]
tgt: HepG2 cells
pIC50: 5.19

compound: O=C(Nc1ccc(F)c(F)c1)Nc1ccc(OCc2ccc(OCCN3CCCCC3)cc2)c2ccccc12 [ID210105C-1]
tgt: HepG2 cells
pIC50: 4.17

I: CNC(=O)c1cc(Oc2ccc(NC(=O)Nc3ccc(Cl)c(C(F)(F)F)c3)cc2)ccn1 [Sorafenib, reference compound]
II: COc1ccc(CNC(=O)Nc2ccc(OCc3ccc(OCCN4CCCCC4)cc3)c3ccccc23)cc1 [ID210113C-1]
Between I and II , whose measured pIC50 reads higher? Please reply using the label of the selected record.
II
(II: 5.88, I: 5.21)

====

- System: MDA-MB-468 cells
- procedure.details: MTT proliferation assay, MDA-MB-468
- Assay type: cell-based
- condition.context: Homo sapiens, MDA-MB-468, 48 h, MDA-MB-468, MTT
endpoint.name: IC50 (µM)

Worked set:
compound: O=C(Nc1ccc(OCc2ccc(OCCN3CCCCC3)cc2F)c2ccccc12)NC1CCCC1 [IY1215C-1]
endpoint.name: IC50
observed.measurement: 5.36
//
compound: O=C(Nc1ccc(Cl)cc1F)Nc1ccc(OCc2ccc(OCCN3CCCCC3)cc2)c2ccccc12 [IY210103B-1]
endpoint.name: IC50
observed.measurement: 20.4

A: O=C(Nc1ccc(F)cc1)Nc1ccc(OCc2ccc(OCCN3CCCCC3)cc2)c2ccccc12 [IY210105D-1]
B: O=C(Nc1ccc(F)cc1)Nc1ccc(OCc2ccc(OCCN3CCCCC3)c(Br)c2)c2ccccc12 [IY210105A-1]
Smaller IC50 value, A vs B ? Please reply using the label of the selected record.
A

====

- Test system: SMMC-7721 cells
- procedure.details: MTT proliferation assay, SMMC-7721
- Format: cell-based
- condition.context: Homo sapiens; SMMC-7721, MTT, 48 h
pIC50: −log10 of the molar value.
endpoint.name: pIC50

compound: O=C(Nc1ccc(Cl)c(Cl)c1)Nc1ccc(OCc2ccc(OCCN3CCCCC3)cc2)c2ccccc12 [ID1214B-1]
tgt: SMMC-7721 cells
pIC50: 5.06

a: CNC(=O)c1cc(Oc2ccc(NC(=O)Nc3ccc(Cl)c(C(F)(F)F)c3)cc2)ccn1 [Sorafenib, reference compound]
b: O=C(NCc1ccccc1)Nc1ccc(OCc2ccc(OCCN3CCCCC3)cc2)c2ccccc12 [ID1120B-1]
Smaller pIC50 value, a vs b ? Please reply using the label of the selected record.
a

====

- Tested on: HepG2 cells
- procedure.details: MTT proliferation assay, HepG2
- Assay type: cell-based
- condition.context: 48 h
endpoint.name: IC50 (nM)
Answer with a number only, understood to be in nM.

Bench note: what IC50 did O=C(NCc1ccccc1)Nc1ccc(OCc2ccc(OCCN3CCCCC3)cc2)c2ccccc12 [ID1120B-1] show?
1680

====

- Tested on: MDA-MB-468 cells
- procedure.details: MTT proliferation assay, MDA-MB-468
- Format: cell-based
- condition.context: Homo sapiens, MDA-MB-468, 48 h, MDA-MB-468, MTT
pIC50: −log10 of the molar value.
endpoint.name: pIC50

Worked set:
compound: O=C(Nc1ncccc1Cl)Nc1ccc(OCc2ccc(OCCN3CCCCC3)cc2)c2ccccc12 [ID210119B-1]
observed.measurement: 4.58

compound: O=C(Nc1ccccc1)Nc1ccc(OCc2ccc(OCCN3CCCCC3)cc2)c2ccccc12 [IY1223B-1]
observed.measurement: 4.88

compound: O=C(Nc1ccc(-c2ccccc2)cc1)Nc1ccc(OCc2ccc(OCCN3CCCCC3)cc2)c2ccccc12 [IY210128B-1]
observed.measurement: 4.20

compound: C[C@H](NC(=O)/C(C#N)=C/c1cccc(Br)n1)c1ccccc1 [WP1066, reference compound]
observed.measurement: 4.88

1: COc1cc(NC(=O)Nc2ccc(OCc3ccc(OCCN4CCCCC4)cc3)c3ccccc23)ccc1F [IY210105C-1]
2: O=C(Nc1ccc(OCc2ccc(OCCN3CCCCC3)cc2)c2ccccc12)NC1CCCC1 [ID1217B-1]
Between 1 and 2 , whose measured pIC50 reads higher? Please reply using the label of the selected record.
1
(1: 5.72, 2: 4.47)

====

- Test system: MDA-MB-231 cells
- procedure.details: MTT proliferation assay, MDA-MB-231
- Format: cell-based
- condition.context: Homo sapiens; MDA-MB-231, MTT, 48 h
endpoint.name: IC50 (µM)

Worked set:
compound: O=C(Nc1ccc(Cl)c(Cl)c1)Nc1ccc(OCc2ccc(OCCN3CCCCC3)cc2)c2ccccc12 [ID1214B-1]
endpoint.name: IC50
measurement.unit: µM
observed.measurement: 114

compound: C[C@H](NC(=O)/C(C#N)=C/c1cccc(Br)n1)c1ccccc1 [WP1066, reference compound]
endpoint.name: IC50
measurement.unit: µM
observed.measurement: 10.2

a: O=C(NCc1ccccc1)Nc1ccc(OCc2ccc(OCCN3CCCCC3)cc2)c2ccccc12 [ID1120B-1]
b: COc1ccc(NC(=O)Nc2ccc(OCc3ccc(OCCN4CCCCC4)cc3)c3ccccc23)cc1 [IY1214A-1]
Between a and b , whose measured IC50 reads higher? Please reply using the label of the selected record.
a

====

- Test system: Jurkat cells
- procedure.details: MTT proliferation assay, Jurkat
- Type: cell-based
- condition.context: 48 h, phosphate
endpoint.name: IC50 (µM)
Answer with a number only, understood to be in µM.

Bench note: what IC50 did O=C(NCc1ccccc1)Nc1ccc(OCc2ccc(OCCN3CCCCC3)cc2)c2ccccc12 [ID1120B-P, phosphate] show?
4.74

====

- Tested on: SMMC-7721 cells
- procedure.details: MTT proliferation assay, SMMC-7721
- Type: cell-based
- condition.context: Homo sapiens; SMMC-7721, MTT, 48 h
endpoint.name: IC50 (µM)

compound: O=C(Nc1ccc(OC(F)(F)F)cc1)Nc1ccc(OCc2ccc(OCCN3CCCCC3)cc2)c2ccccc12 [IY1214B-2]
tgt: SMMC-7721 cells
observed.measurement: 31.4

I: C[C@H](NC(=O)/C(C#N)=C/c1cccc(Br)n1)c1ccccc1 [WP1066, reference compound]
II: O=C(NCc1ccccc1)Nc1ccc(OCc2ccc(OCCN3CCCCC3)c(Cl)c2)c2ccccc12 [ID1120C-1]
Smaller IC50 value, I vs II ? Please reply using the label of the selected record.
II

I: O=C(NCc1ccc(F)cc1)Nc1ccc(OCc2ccc(OCCN3CCCCC3)cc2)c2ccccc12 [IY210119B-1]
II: COc1ccc(NC(=O)Nc2ccc(OCc3ccc(OCCN4CCCCC4)cc3)c3ccccc23)cc1 [IY1214A-1]
III: O=C(NCc1ccc(F)cc1F)Nc1ccc(OCc2ccc(OCCN3CCCCC3)cc2)c2ccccc12 [IY210118B-1]
IV: O=C(NCc1cc(F)cc(F)c1)Nc1ccc(OCc2ccc(OCCN3CCCCC3)cc2)c2ccccc12 [IY210115B-1]
V: N#Cc1cc(OCCN2CCCCC2)ccc1COc1ccc(NC(=O)NCc2ccccc2)c2ccccc12 [ID1120D-1]
Highest IC50 first, then in falling order down to the smallest. Output spec: a listing of the labels in the requested order.
IV, III, V, II, I
(IV: 40.1 µM, III: 23.6 µM, V: 6.89 µM, II: 3.57 µM, I: 0.736 µM)

====

- Tested on: MDA-MB-468 cells
- procedure.details: MTT proliferation assay, MDA-MB-468
- Format: cell-based
- condition.context: Homo sapiens, MDA-MB-468, 48 h, MDA-MB-468, MTT
- Experimental: Test results were recorded. A cell growth curve was drawn with the dosage of each compound as abscissa and the absorbance value as ordinate.
endpoint.name: IC50 (µM)

compound: O=C(NCc1ccccc1)Nc1ccc(OCc2ccc(OCCN3CCCCC3)cc2)c2ccccc12 [ID1120B-1]
tgt: MDA-MB-468 cells
IC50 (µM): 4.92

compound: O=C(Nc1ccc(F)c(Cl)c1)Nc1ccc(OCc2ccc(OCCN3CCCCC3)cc2)c2ccccc12 [IY210105B-1]
tgt: MDA-MB-468 cells
IC50 (µM): 51.4

compound: COc1ccc(NC(=O)Nc2ccc(OCc3ccc(OCCN4CCCCC4)c(Cl)c3)c3ccccc23)cc1 [ID210110C-1]
tgt: MDA-MB-468 cells
IC50 (µM): 6.13

compound: O=C(Nc1ccc(OC(F)(F)F)c(Cl)c1)Nc1ccc(OCc2ccc(OCCN3CCCCC3)cc2)c2ccccc12 [ID1229C-1]
tgt: MDA-MB-468 cells
IC50 (µM): 47.5

compound: O=C(Nc1ccc(Cl)c(Cl)c1)Nc1ccc(OCc2ccc(OCCN3CCCCC3)cc2)c2ccccc12 [ID1214B-1]
tgt: MDA-MB-468 cells
IC50 (µM): 688

1: O=C(Nc1ccncc1)Nc1ccc(OCc2ccc(OCCN3CCCCC3)cc2)c2ccccc12 [IY210122C-1]
2: O=C(Nc1ccc(OCc2ccc(OCCN3CCCCC3)cc2)c2ccccc12)NC1CCOCC1 [ID210127B-1]
Smaller IC50 value, 1 vs 2 ? Please reply using the label of the selected record.
2
